scatter score 0-4, MLP29, 9.000 nM values, listed per item
- MEASURED_TARGET: native mouse MET on living cells (mouse, UniProt P16056 25-1379)
- PROTOCOL: cell-based or functional assay
Please answer using the number first and the unit second.

Some solved cases for reference:
71G12 chimeric llama-human IgG1 mAb (antibody, V domains shown, llama VH on human IgG1 CH1-CH2-CH3, llama VL on human kappa CL) VH: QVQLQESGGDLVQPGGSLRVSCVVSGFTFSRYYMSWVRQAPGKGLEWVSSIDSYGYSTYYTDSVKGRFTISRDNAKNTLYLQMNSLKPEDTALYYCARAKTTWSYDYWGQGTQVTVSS VL: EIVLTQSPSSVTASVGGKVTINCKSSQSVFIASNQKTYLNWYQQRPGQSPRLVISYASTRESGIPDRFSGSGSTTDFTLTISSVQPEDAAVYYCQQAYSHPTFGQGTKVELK :: 3 score
71A3 chimeric llama-human IgG1 mAb (antibody, V domains shown, llama VH on human IgG1 CH1-CH2-CH3, llama VL on human lambda CL) VH: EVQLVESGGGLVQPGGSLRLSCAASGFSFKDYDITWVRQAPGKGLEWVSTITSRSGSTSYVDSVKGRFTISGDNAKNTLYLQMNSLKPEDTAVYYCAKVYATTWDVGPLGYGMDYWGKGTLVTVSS VL: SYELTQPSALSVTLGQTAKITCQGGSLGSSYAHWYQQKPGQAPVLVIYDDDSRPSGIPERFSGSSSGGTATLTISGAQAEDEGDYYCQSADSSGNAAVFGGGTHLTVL :: 4 score

Attention now turns to another entry.
Asked: Quick check: scatter score 0-4, MLP29, 9.000 nM of 71D4 chimeric llama-human IgG1 mAb (antibody, V domains shown, llama VH on human IgG1 CH1-CH2-CH3, llama VL on human lambda CL) VH: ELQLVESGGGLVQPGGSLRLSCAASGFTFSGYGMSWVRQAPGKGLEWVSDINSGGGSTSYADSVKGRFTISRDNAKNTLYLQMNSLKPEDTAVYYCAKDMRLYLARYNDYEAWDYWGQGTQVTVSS VL: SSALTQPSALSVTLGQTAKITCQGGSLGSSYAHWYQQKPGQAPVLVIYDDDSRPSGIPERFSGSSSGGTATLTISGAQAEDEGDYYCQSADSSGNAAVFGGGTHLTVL ?
Given back: 2 score
